# protocol-text: Blood levels of lenalidomide in SCID mice after daily intraperitoneal dose
# Type: in vivo, SCID mouse
# assay-conditions: female, CB.17 SCID, mouse, blood, 25 mg/kg; Group 2: 500 mcg ip once a day; read-out: blood level at 18 hours
value-type: concentration at 18 h
Lab note: write values as number then unit, every time.

Reported concentration at 18 h ( Nc1cccc2c1CN(C1CCC(=O)NC1=O)C2=O (stereo not shown) [lenalidomide] ) = 13 ng/mL
